Just for reference, PubChem BioAssay is where these values come from.

test: basal HepG2 mitochondrial membrane potential changes, profiling panel, cell-based, JC-1 fluorescence, 24 h, 100 nL compound (AID 1167); conditions: higher = more signal; further: test concentration not given here
Hi there, I'd appreciate the recorded z-score for every entry that follows.
Numbers only.

// solved cases for z-score follow
| MOLECULE | z-score |
| --- | --- |
| O=C1c2ccccc2[C@@]2(Cc3ccccc3N(CCN3CCOCC3)C2=O)[C@H](c2ccc(CO)cc2)N1Cc1ccccc1 | 0.761 |
| COc1cc2c(cc1OC)CN(C(=O)[C@@H]1[C@H]3C(=O)O[C@H](c4ccccc4)[C@H](c4ccccc4)N3[C@H](c3ccc(O)cc3)[C@@]13C(=O)Nc1ccc(C#CC4(O)CCCCCC4)cc13)CC2 | -0.769 |
| CC(C)C[C@@H]1NC(=O)[C@H]2C[C@@H](C(=O)NCCCCCCN)[C@@H](c3ccc(O)cc3)N2C1=O | 0.414 |
| COc1ccc(C(=O)Nc2ccc(CN3C(=O)[C@@]4(O[C@@H](CC(=O)N5CCC[C@H]5CO)[C@H]([Si](C)(C)c5ccc(OC)cc5)[C@H]4C)c4ccccc43)cc2)cc1 | 3.78 |
| Cc1ccc(S[C@]2(C(=O)NC(C)C)CC(=O)N(Cc3ccccc3Cl)[C@@H]2c2ccc(CO)cc2I)cc1 | -1.08 |
| COC(=O)[C@@]1(Cc2ccccc2)[C@H]2c3cc(C(=O)N4CCCC4)n(Cc4nc5ccccc5[nH]4)c3C[C@H]2CN1C(=O)c1ccccc1 | 1.73 |
| C=CC[C@@]1(C(=O)N(C)C)N=C(c2ccc(OCCCO)cc2)O[C@@H]1c1ccccc1N=[N+]=[N-] | -0.328 |
| CN(C)CCCCCCNC(=O)[C@@H]1C[C@@H]2C(=O)N[C@@H](CCCCN)C(=O)N2[C@@H]1c1cccc(OCCO)c1 | 1.87 |
| O=C1[C@H]2C=C(Br)[C@H](C[C@@H]2OCCCCO)[C@@]12CO2 | -1.48 |
| COc1cc(CO)cc(I)c1O[C@H]1C=C(C(=O)NCCO)C[C@@H](N(CCN2CCOCC2)C(=O)C2CCOC2)[C@@H]1O (some centres undefined) | 1.05 |

Take each entry in turn and give its z-score.
1. C=CCOC(=O)[C@@H]1[C@H]2C(=O)O[C@H](c3ccccc3)[C@H](c3ccccc3)N2[C@H](c2ccc(OCCOC(=O)[C@@H]3C[C@@H]4C(=O)N[C@@H](CCCCN(C)C)C(=O)N4[C@@H]3c3ccc(O)cc3)cc2)[C@@]12C(=O)Nc1ccc(I)cc12
2. O=C1NC(=O)C2C1C=CC(C(O)c1ccccc1)N2Nc1ccc(Cl)cc1Cl (centres undefined)
3. O=C(NCc1ccccc1)[C@@H]1c2ccccc2C(=O)N(CC23CC4CC(CC(C4)C2)C3)[C@H]1c1ccc(CO)cc1
4. COC(=O)[C@@]1(Cc2ccc(OC)cc2)[C@H]2c3cc(C(=O)N4CCCC4)n(Cc4ccc(OC)c(OC)c4)c3C[C@H]2CN1C(=O)c1ccccc1

Response:
1. -1.93
2. -3.07
3. 0.362
4. 4
